Test system: wheat germ agglutinin (Triticum aestivum), Alexa647-labelled
Assay: wheat germ agglutinin binders on compound microarrays, profiling panel, artefact control for SMM control-protein annotation, biochemical, small-molecule microarray, 635/667 nm fluorescence (AID 1140);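 further: score merges 667 nm feature emission with signal to noise over triplicate slides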
Conditions: WGA-A647 binding, 635 nm fluorescence, higher = more signal
Binary call on composite z-score: condition met from 0.4 upward, condition not met beneath that.

Ask | Does CC(C)C[C@H]1NC(=O)[C@@H](C)NC(=O)[C@@]23C(=O)N[C@@H](Cc4ccccc4)C2[C@H](C)[C@@]2(C)O[C@H]2C3/C=C/C/C=C\CNC1=O (stereo partly specified) have a reported composite z-score of at least 0.4?
Reply | condition met

Ask | Does C[C@]1(C(=O)NCC(F)(F)F)c2ccccc2C(=O)N(Cc2ccc(OC(F)(F)F)cc2)[C@H]1c1ccc(CO)cc1 have a reported composite z-score of at least 0.4?
Reply | condition not met

Ask | Does COCCOC(=O)N1C(=O)[C@@]2(c3cc(C#CC4=CCCCC4)ccc31)[C@H](c1ccc(OCCO)cc1)N1[C@H](c3ccccc3)[C@H](c3ccccc3)OC(=O)[C@H]1[C@@H]2C(=O)N1CCCCCCC1 have a reported composite z-score of at least 0.4?
Reply | condition met

Ask | Does [N-]=[N+]=Nc1ccccc1[C@@H]1OC(c2ccc(OCCCO)cc2)=N[C@]1(Cc1ccccc1)C(N)=O have a reported composite z-score of at least 0.4?
Reply | condition met

Ask | Does NC(=O)N1C(=O)C2C(C1=O)C1C=C(CCCO)C2C(c2ccc(CN3CCCC3)cc2)N1Cc1cccc(OC(F)(F)F)c1 (stereo unspecified) have a reported composite z-score of at least 0.4?
Reply | condition not met
